test: Oral pharmacokinetics of carbamazepine and carbamazepine 10,11-epoxide with and without BM pre-treatment; format: in vivo, male Sprague-Dawley rat; details: male, Sprague-Dawley, rat, plasma, po, 50 mg/kg, vehicle pretreated rats; carbamazepine 50 mg/kg oral; Mean ± SD; read-out: Cmax

{"columns": ["Compound", "Cmax [ng/mL]"],
 "data": [
  ["NC(=O)N1c2ccccc2C=Cc2ccccc21 [CBZ, carbamazepine]", 8170]
]}

###

assay: Oral pharmacokinetics of carbamazepine and carbamazepine 10,11-epoxide with and without BM pre-treatment; format: in vivo, male Sprague-Dawley rat; conditions: male, Sprague-Dawley, rat, plasma, po, 50 mg/kg, vehicle pretreated rats; carbamazepine 50 mg/kg oral; Mean ± SD
Quantity: AUC(0-inf) (ng·h/mL)

{"columns": ["Molecule", "Unit spec", "Numeric result"],
 "data": [
  ["NC(=O)N1c2ccccc2C=Cc2ccccc21 [CBZ, carbamazepine]", "ng·h/mL", 40400]
]}

These entries and their values trace back to paper PMC3756011.
